# target: the molecule itself
# test-name: crystal structure
attribute-measured: binding result

H-VTQVGF-OH [CsgA segment 137VTQVGF142 (R5 repeat), unmodified termini] :: binds
H-TASNSS-OH [CsgA segment 129TASNSS134 (R4-R5 loop), unmodified termini] :: binds
H-IYQYGG-OH [CsgA segment 47IYQYGG52 (R1 repeat), unmodified termini] :: binds
H-LNIYQY-OH [CsgA segment 45LNIYQY50 (R1 repeat), unmodified termini] :: binds
